targetUnderTest: UniProt B0FL73
assayInfo: In vitro ability to block beta-1 adrenergic receptor in guinea pig right atria.
conditionSet: read-out: pA2 (converted)
measureName: Kb (nM)

INSERT INTO results (molecule, endpointvalue) VALUES
  ('CCOC(=O)c1ccc(CNCC(O)COc2ccccc2C)cc1 (configuration not stated)', 251),
  ('CCOC(=O)CC(C)(C)NCC(O)COc1ccccc1C (configuration not stated)', 3.16),
  ('NC(=O)CNCC(O)COc1cccc2ccccc12 (configuration not stated)', 631),
  ('COC(=O)CCNCC(O)COc1ccccc1C (configuration not stated)', 31.6),
  ('Cc1ccccc1OCC(O)CNCC(C)C (configuration not stated)', 2.51);

(A) CCOC(=O)CCNCC(O)COc1cccc(C)c1 (configuration not stated)
(B) CCOC(=O)CNCC(O)COc1ccccc1C (configuration not stated)
[ask] Compare Kb: is it lower for A or for B ? Please respond with the label that marks your chosen entry.
[reply] A

(a) CCOC(=O)CCNCC(O)COc1cccc(OC)c1 (configuration not stated)
(b) CCOC(=O)C(NCC(O)COc1ccccc1C)C(=O)OCC (configuration not stated)
[ask] Compare Kb: is it lower for a or for b ? Please respond with the label that marks your chosen entry.
[reply] a

(P) CCOC(=O)CCCCNCC(O)COc1ccccc1C (configuration not stated)
(Q) COc1ccc(CCOC(=O)CCNCC(O)COc2ccccc2)cc1OC (configuration not stated)
[ask] Hi there! Just curious which has the higher Kb between P and Q . Please respond with the label that marks your chosen entry.
[reply] Q
(Q: 100 nM, P: 15.8 nM)

---

targetUnderTest: Beta-1 adrenergic receptor (Cavia porcellus) (UniProt B0FL73)
Sequence (B0FL73 1-467): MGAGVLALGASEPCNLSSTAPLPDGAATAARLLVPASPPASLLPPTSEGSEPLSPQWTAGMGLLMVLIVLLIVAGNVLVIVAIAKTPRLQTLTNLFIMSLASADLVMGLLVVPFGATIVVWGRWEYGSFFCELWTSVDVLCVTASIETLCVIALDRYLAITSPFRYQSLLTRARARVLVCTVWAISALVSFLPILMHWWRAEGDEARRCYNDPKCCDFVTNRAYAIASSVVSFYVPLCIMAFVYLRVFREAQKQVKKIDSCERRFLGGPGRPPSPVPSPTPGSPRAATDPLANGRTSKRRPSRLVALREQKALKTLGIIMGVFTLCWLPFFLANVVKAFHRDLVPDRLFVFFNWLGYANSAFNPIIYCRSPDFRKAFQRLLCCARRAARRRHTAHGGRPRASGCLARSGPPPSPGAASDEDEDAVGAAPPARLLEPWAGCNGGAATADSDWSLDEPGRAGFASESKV
assayInfo: In vivo inhibition of Beta-1 adrenergic receptor in guinea pig right atria after 40 min
Format: functional, organism-based
measureName: In vivo duration (min)

Some solved entries appear below for comparison.
INSERT INTO assay_data (compound, endpointvalue) VALUES
  ('CC(C)CNCC(O)COc1cccc2ccccc12 (stereo unspecified)', 46),
  ('CCOC(=O)CNCC(O)COc1cccc2ccccc12 (stereo unspecified)', 53),
  ('CCOC(=O)CCCNCC(O)COc1ccccc1C (stereo unspecified)', 15),
  ('CCOC(=O)CCNCC(O)COc1cccc2ccccc12 (stereo unspecified)', 17);

(A) CCOC(=O)CCNCC(O)COc1ccccc1C (stereo unspecified)
(B) CCOC(=O)CCCCNCC(O)COc1ccccc1C (stereo unspecified)
[ask] Hi there! Just curious which has the higher In vivo duration between A and B . Please respond with the label that marks your chosen entry.
[reply] B
(B: 20 min, A: 14 min)

---

targetUnderTest: Beta-2 adrenergic receptor (Cavia porcellus, UniProt Q8K4Z4)
Sequence (Q8K4Z4 whole entry): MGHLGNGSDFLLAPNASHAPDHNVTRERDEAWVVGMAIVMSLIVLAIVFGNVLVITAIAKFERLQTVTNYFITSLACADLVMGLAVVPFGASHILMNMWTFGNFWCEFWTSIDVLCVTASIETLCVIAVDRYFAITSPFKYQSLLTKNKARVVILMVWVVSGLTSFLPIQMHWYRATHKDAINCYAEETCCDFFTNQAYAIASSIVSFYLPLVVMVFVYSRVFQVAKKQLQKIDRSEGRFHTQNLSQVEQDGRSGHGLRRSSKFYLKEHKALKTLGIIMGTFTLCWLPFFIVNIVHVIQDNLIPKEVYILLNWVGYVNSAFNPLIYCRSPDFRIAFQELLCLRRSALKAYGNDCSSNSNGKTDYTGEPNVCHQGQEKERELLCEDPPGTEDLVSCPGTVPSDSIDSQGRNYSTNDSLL
assayInfo: In vitro ability to block beta-2 adrenergic receptor in guinea pig trachea.
Format: tissue-based
conditionSet: read-out: pA2 (converted)
measureName: Kb (nM)

Some solved entries appear below for comparison.
INSERT INTO measurements (molecule, endpointvalue) VALUES
  ('CCOC(=O)CC(C)(C)NCC(O)COc1ccccc1C (stereo unspecified)', 7.94),
  ('CCOC(=O)CCNCC(O)COc1cccc2ccccc12 (stereo unspecified)', 50.1),
  ('CC(C)CNCC(O)COc1cccc2ccccc12 (stereo unspecified)', 1.26),
  ('NC(=O)CNCC(O)COc1cccc2ccccc12 (stereo unspecified)', 631),
  ('Cc1ccccc1OCC(O)CNCC(C)C (stereo unspecified)', 6.31),
  ('CC(C)CNCC(O)COc1ccccc1 (stereo unspecified)', 39.8);

(A) CCOC(=O)CCNCC(O)COc1c(C)cccc1C (stereo unspecified)
(B) COC(=O)CNCC(O)COc1ccccc1C (stereo unspecified)
[ask] Hi there! Just curious which has the higher Kb between A and B . Please respond with the label that marks your chosen entry.
[reply] B

Where do these numbers come from? They come from ChEMBL document CHEMBL1122202.
